Collected pIC50 values appear next to each entry.
Molecular target: protein kinase C
Assay: Protein kinase C inhibition assay (histone H1 phosphorylation)
Settings: rat brain enzyme; histone H1 substrate; 10 min
From the text: A protein kinase C (PKC) assay is designed to duplicate the in vivo conditions required for protein kinase C function. Therefore, pH, salt and cofactor concentrations are similar to physiologic levels. A lysine rich histone, H1, was used in the assay as the phosphorylation acceptor-proteinbecause it is readily available and serves as a good substrate for protein kinase C. […]
pIC50: −log10 of the molar value.
Property name: pIC50

Molecule | Numeric result
CCCCCCCCCCCCCCC[C@@H]1OC(C)(C)OC[C@H]1N (relative stereo) [Compound 5] | 3.89
CCCCCCCCCCCCCCC[C@@H]1OC(c2ccccc2)OC[C@@H]1N (stereo partly shown) [Compound 19] | 3.74
CCCCCCCCCCCCCCC[C@@H]1OC(C)OC[C@@H]1N (stereo partly shown) [Compound 18] | 4.19
CCCCCCCCCCCCCCC[C@@H]1OC(C)(C)OC[C@H]1NC(C)=N (relative stereo) [Compound 10] | 4.54
CCCCCCCCCCCCCCCC1OCOCC1N (stereo not shown) [Compound 24] | 4.08
CCCCCCCCCCCCCCC[C@@H]1OC(C)(C)OC[C@@H]1N (relative stereo) [Compound 6] | 3.92
CCCCCCCCCCCCCCC[C@@H]1OC(C)(C)OC[C@@H]1N [Compound 13] | 3.92

====

Tested on: MCF-7/ADR adriamycin resistant line of MCF-7 cells
Experiment: Human tumor cell growth inhibition (3H-thymidine incorporation), MCF-7/ADR
Type: cell-based
Conditions: NCI/ADR-RES, 18 to 24 hrs
Collected IC50 values appear next to each entry.

Molecule | Unit info | IC50
CCCCCCCCCCCCCCC[C@@H]1OC(C)(C)OC[C@@H]1N (relative stereo) [Compound 6] | µM | 5.5
CCCCCCCCCCCCCCC[C@@H]1OC(C)(C)OC[C@H]1N (relative stereo) | µM | 6.6
CCCCCCCCCCCCCCC[C@@H]1OC(C)(C)OC[C@@H]1N [Compound 13] | µM | 6.3
